Data credit: ChEMBL document CHEMBL5316290

Tested on: HepG2
test.name: Cytotoxicity against human HepG2 cells assessed as inhibition of cell growth incubated for 72 hrs by CCK-8 assay
Format: functional, cell-based
experimental.conditions: HepG2, 72 h
experimental.endpoint: pIC50
Give bare numbers, as −log10 of the molar value.

Please review the following examples before continuing.
COc1c(C)cnc(Cn2cc(C#CCCn3cc(C(=O)NCCOCCNC(=O)CN4CCN(c5ccc(Nc6ncc7c(C)c(C(C)=O)c(=O)n(C8CCCC8)c7n6)nc5)CC4)nn3)c3c(Cl)nc(N)nc32)c1C :: 5.42
COc1c(C)cnc(Cn2cc(C#CCCn3cc(C(=O)N4CCN(c5ccc(Nc6ncc7c(C)c(C(C)=O)c(=O)n(C8CCCC8)c7n6)nc5)CC4)nn3)c3c(Cl)nc(N)nc32)c1C :: 5.77

Entry `COc1c(C)cnc(Cn2cc(C#CCCn3cc(CNC(=O)CN4CCN(c5ccc(Nc6ncc7c(C)c(C(C)=O)c(=O)n(C8CCCC8)c7n6)nc5)CC4)nn3)c3c(Cl)nc(N)nc32)c1C` , HepG2 data, pIC50 value: 6.30
